Tested on: SK-OV-3 ovarian
Experiment: NCI-60 one-dose screen, 48 h (100 = growth as untreated, 0 = no growth, -100 = all killed)
Conditions: 10 µM unless noted
Experimental: Growth inhibition of the SK-OV-3 human tumor cell line is measured as a screen for anti-cancer activity. Cells are grown in 96 well plates and exposed to the test compound for 48 hours. Compounds are tested at a single concentration, which is 10^-5 M for most compounds. The reported endpoint is percent growth (GI% or GIPRCNT), where numbers from 0 - 100% represent growth inhibition, and numbers from -100% - 0 represent cell death. For example, a value of 40 represents 60% growth inhibition. […]
The panel holds about 83,000 compounds, 20% with a hit somewhere; the sample as a whole holds those more often. The source made the active and inactive calls. How the source made its calls: active means growth percent below 10; inactive means the rest.
Measured growth, listed per entry.

smiles data	growth
CC(=O)c1nc2ccccc2n1CC(=O)c1cccc(Cl)c1	17.5% (inactive)
COc1ccccc1NS(=O)(=O)c1ccc2oc(SC(C)C)nc2c1	114% (inactive)
COc1cc2nc(N3CCCC3)nc(NCCc3ccccc3)c2cc1OC	84.7% (inactive)
COc1ccc(-n2nc(C)c3c(Nc4ccc(NC(=O)Nc5cccc(C(F)(F)F)c5)cc4)ncnc32)cc1	16.9% (inactive)
COc1cc(-c2ccc3c(c2)NC(=O)/C3=C\c2ccc[nH]2)ccc1O	30.7% (inactive)

Q: Need growth, item `FC(F)(F)c1nc2c(NCc3ccc(-c4ccccc4)cc3)cccc2[nH]1`
Result: 89.1% (inactive)

Q: Which growth is reported for this molecule? `COc1cc(/C=C/c2cc(O)c3cc(C(C)=O)c(=O)oc3c2)cc2c1O[C@]1(C)CC[C@@H](O)C(C)(C)[C@H]1C2`
Result: 64.2% (inactive)

Q: Entry under review: `COc1cc(-c2nc(C(=O)NCC(=O)NO)nn2-c2ccc(Cl)cc2)cc(OC)c1OC` . Reported growth?
Result: 93.3% (inactive)

Q: Bench note: what growth did `FC(F)(F)c1ccc(-c2cn3nc(-c4c[nH]c5ccc(Br)cc45)sc3n2)cc1` show?
Result: 92.7% (inactive)

Q: growth lookup needed for `C#Cc1cccc(NC(=O)c2ccccc2NC(=O)CCl)c1` , thanks.
Result: 95.2% [8.25 µM] (inactive)

* * *

system: DU-145 prostate; assay: NCI-60 one-dose screen, 48 h (100 = growth as untreated, 0 = no growth, -100 = all killed); settings: 10 µM unless noted
This is part of a sample that, as a whole, favours compounds with a hit. Of some 83,000 tested, about 20% had one in any assay.
Label key: T means growth under 40%; F means growth of 40% or more.

molecule	assigned category
O=S(=O)(Nc1ccc(Br)c(Cl)c1)c1ccc(-c2cnc(C3CC3)o2)cc1	T
C=C(C)C(=O)Nc1ccc(NC(C)C)cc1	F
COc1cc(-c2nn(-c3ccc(C)cc3)cc2C(=O)O)ccc1O	F
COc1ccc(-c2nc3ccc(-c4nc5ccc(N6CCN(c7ccncc7)CC6)cc5[nH]4)cc3[nH]2)cc1OC	F
Oc1ccccc1-c1nnc(CNc2ccc(Cl)cc2)o1	T

Q: Lab log: compare recorded growth with 40%; is it strictly lower for `Nc1ccn(-c2ccc(Br)cc2)c(=O)n1` ?
Result: F

Q: Please check: growth for `CCN(CC)c1ccc(-c2cc(-c3cc(OC)c(OC)c(OC)c3)nc(N3CCOCC3)c2C#N)cc1` , strictly under 40% or not?
Result: T

Q: Input Nc1n[nH]c2ccc([C@@H]3Nc4ccc5[nH]ncc5c4[C@H]4C5C=CC(C5)[C@@H]34)cc12 (stereo not given in full) ; condition: growth strictly below 40%. Does it hold?
Result: T

Q: Input `COc1cccc(/C=N/NC(=O)c2ccccc2Nc2ccnc(C(F)(F)F)c2)c1O` ; condition: growth strictly below 40%. Does it hold?
Result: T

Q: Just wondering, is growth of `O=C1NC(=S)NC(=O)C1CC(=O)n1c(-c2ccccc2)nc2ccccc21` below 40%?
Result: F

* * *

Test system: SK-OV-3 ovarian
Experiment: NCI-60 one-dose screen, 48 h (100 = growth as untreated, 0 = no growth, -100 = all killed)
Settings: 10 µM unless noted
Method: Growth inhibition of the SK-OV-3 human tumor cell line is measured as a screen for anti-cancer activity. Cells are grown in 96 well plates and exposed to the test compound for 48 hours. Compounds are tested at a single concentration, which is 10^-5 M for most compounds. The reported endpoint is percent growth (GI% or GIPRCNT), where numbers from 0 - 100% represent growth inhibition, and numbers from -100% - 0 represent cell death. For example, a value of 40 represents 60% growth inhibition. […]
This is part of a sample that, as a whole, favours compounds with a hit. Of some 83,000 tested, about 20% had one in any assay.
Outcome: Satisfied for growth of at least 70%; Not satisfied for anything lower.

For orientation, consider the following solved cases.
compound	assigned category
Cc1ccc(NC(=O)C2CCC(CN3CCN(C)CC3)CC2)cc1Nc1nccc(-c2cccnc2)n1 (centres undefined)	Satisfied
O=C(NCCN1CCOCC1)Nc1ccc(-c2cc3c(Nc4ccc(Oc5cccc(C(F)(F)F)c5)c(Cl)c4)ncnc3s2)cc1	Not satisfied
COc1ccc(/C=N/C2=C(C#N)C(c3ccc(N(C)C)cc3)c3ccc4ccccc4c3O2)cc1 (centres undefined)	Satisfied
COc1nc2c(c(=O)n1C)CN(Cc1ccccc1)C=N2	Satisfied

Q: Confirm if growth reported for the compound `O=C1/C(=C/c2cn(-c3ccccc3)nc2-c2ccccc2)SC(=S)N1CCc1ccccc1` is 70% or above.
Result: Satisfied

Q: Textbook exercise: given the entry Nc1n[nH]c2ccc([C@@H]3Nc4ccc5[nH]ncc5c4[C@H]4C5C=CC(C5)[C@@H]34)cc12 (some centres undefined) , state whether its growth is greater than or equal to 70%.
Result: Not satisfied

Q: Is growth for `COc1cccc(/C=C2\SC(=Nc3ccc(NC(C)=O)cc3)NC2=O)c1OC` at or above 70%?
Result: Satisfied

Q: Determine whether measured growth meets or exceeds 70% for `Nc1ccn(-c2ccc(Br)cc2)c(=O)n1`
Result: Satisfied

* * *

system: SK-MEL-28 melanoma; assay: NCI-60 one-dose screen, 48 h (100 = growth as untreated, 0 = no growth, -100 = all killed); conditions: 10 µM unless noted
Compounds without any hit were thinned out: in the full panel of roughly 83,000, 20% have a hit.
Reported growth values are given for each entry in this list.
Please respond with the number in % and leave the unit unwritten.

molecule	scale unit	growth
CCOc1cc2ncc(C#N)c(Nc3ccc(OCc4cccc(F)c4)c(Cl)c3)c2cc1NC(=O)CC1CCSS1 (stereo unspecified)	%	34.9

Q: # query: growth | item `CSc1ccc(-c2n[nH]nc2-c2cc3ccccc3s2)cc1` | system: SK-MEL-28 melanoma
Result: 59.5

Q: Query growth on SK-MEL-28 melanoma for `O=C(/C=C/c1ccc(C(F)(F)F)cc1)Nc1ccc(C=C2c3ccccc3C(=O)c3ccccc32)cc1`
Result: 60.2

Q: What is its growth for SK-MEL-28 melanoma? Entry: CCNc1ncnc2c1cnn2C1CCCO1 (stereo unspecified)
Result: 107

* * *

tested on: MOLT-4 leukemia; assay: NCI-60 one-dose screen, 48 h (100 = growth as untreated, 0 = no growth, -100 = all killed); conditions: 10 µM unless noted
About 83,000 compounds went through this panel and 20% of them were active in at least one assay; those are over-represented in the sample as a whole.
readout type: growth (%)
Use % as the unit, but write only the number.

compound	growth / %
C=C1C(=O)O[C@H]2[C@H]1CC/C(COC(=O)NCc1ccc(OC)c(OC)c1)=C\CC[C@@]1(C)O[C@@H]21	39.4
COc1ccc2c(c1)c(-c1nonc1-c1cn(C)c3ccccc13)cn2C	30.2
CN(C)CCN1C(=O)c2cccc3c(N)ccc(c23)C1=O	1.9
CC(C)(C)CC(C)(C)c1ccc(OCCOCC[N+](C)(C)Cc2ccccc2)cc1	-20

Turning now to a further compound:
Q: What value of growth has been reported for the following compound? `COc1cc(/C=C/c2cc(/C=C/c3ccc(O)c(OC)c3)n(-c3c(C)cccc3C)c(=O)n2)ccc1O`
Result: 6.55

* * *

tested on: RXF 393 renal; experiment: NCI-60 one-dose screen, 48 h (100 = growth as untreated, 0 = no growth, -100 = all killed); conditions: 10 µM unless noted
Compounds without any hit were thinned out: in the full panel of roughly 83,000, 20% have a hit.
readout type: growth (%)
Number only, in %; omit the unit.

compound	growth [%]
O=C1NC(=O)C(c2ccc(Cl)cc2Cl)N1 (stereo not given)	117
Cc1cc2nc(NC(=O)CN3CCN(CCN4C(=O)c5cccc6cccc(c56)C4=O)CC3)sc2cc1C	87.5
O=C1C=C(OCC=C(Cl)Cl)C(=O)c2ccccc21	86.6
Cc1c(/C=C/[N+](=O)[O-])ccc2c1[nH]c1ccccc12	62.6
Nc1nc2ncc(CCNc3ccc(C(=O)O)cc3)nc2c(=O)[nH]1	112
COc1ccc(CN2c3ccccc3Oc3ccccc32)cc1O	50.1
Cc1[nH]c(-c2ccc3cc[nH]c3c2)c2c1C(=O)CCCC2	68.1
COc1ccc(S(=O)(=O)N2CCCCCC2)cc1NC(=O)c1[nH]c(C)c2c1CCCCC2=O	34.7

Q: Look up growth for this compound: `CCOC(=O)c1c(C)oc2ncnc(N3CCN(C(=S)Nc4ccccc4)CC3)c12`
Result: 90.8

Q: Dear colleague, I am looking for the recorded growth of the following compound: `C=C(C)[C@@H]1CC[C@]2(C(N)=O)CC[C@]3(C)[C@H](CC[C@@H]4[C@@]5(C)C/C(=C/c6ccco6)C(=O)C(C)(C)[C@@H]5CC[C@]43C)[C@@H]12`
Result: 94.2
